- Test system: Hepatotoxicity
- RUN_PARAMETERS: Liver
Known HepSE_hepatic necrosis of a selection of compounds
ENDPOINT_NAME: HepSE_hepatic necrosis

[[record]]
compound = "CC(C)n1c(/C=C/C(O)CC(O)CC(=O)O)c(-c2ccc(F)cc2)c2ccccc21 (stereo not given) [FLUVASTATIN]"
endpoint_name = "HepSE_hepatic necrosis"
recorded_value = 1

[[record]]
compound = "CCCCS(=O)(=O)N[C@@H](Cc1ccc(OCCCCC2CCNCC2)cc1)C(=O)O [TIROFIBAN]"
endpoint_name = "HepSE_hepatic necrosis"
recorded_value = 0

[[record]]
compound = "CC(C)(C(=O)O)c1ccc(C(O)CCCN2CCC(C(O)(c3ccccc3)c3ccccc3)CC2)cc1 (stereo not given) [FEXOFENADINE]"
endpoint_name = "HepSE_hepatic necrosis"
recorded_value = 0

[[record]]
compound = "CN1CCC[C@H]1c1cccnc1 [NICOTINE]"
endpoint_name = "HepSE_hepatic necrosis"
recorded_value = 0

[[record]]
compound = "Cc1ccc(-c2cc(C(F)(F)F)nn2-c2ccc(S(N)(=O)=O)cc2)cc1 [CELECOXIB]"
endpoint_name = "HepSE_hepatic necrosis"
recorded_value = 0


----------
Known HepSE_cholecystitis of a selection of compounds
- System: Hepatotoxicity
- RUN_PARAMETERS: Liver
ENDPOINT_NAME: HepSE_cholecystitis

[[record]]
compound = "O=P(O)(O)O [PHOSPHORIC ACID]"
endpoint_name = "HepSE_cholecystitis"
recorded_value = 0

[[record]]
compound = "CNCCCC1c2ccccc2C=Cc2ccccc21 [PROTRIPTYLINE]"
endpoint_name = "HepSE_cholecystitis"
recorded_value = 0

[[record]]
compound = "CC(C)NCC(O)COc1ccc(CC(N)=O)cc1 (stereo unspecified) [ATENOLOL]"
endpoint_name = "HepSE_cholecystitis"
recorded_value = 0

[[record]]
compound = "CC[C@H]1OC(=O)[C@H](C)C(=O)[C@H](C)[C@@H](O[C@@H]2O[C@H](C)C[C@H](N(C)C)[C@H]2O)[C@](C)(OC)C[C@@H](C)C(=O)[C@H](C)[C@H]2N(CCCCn3cnc(-c4cccnc4)c3)C(=O)O[C@]12C [TELITHROMYCIN]"
endpoint_name = "HepSE_cholecystitis"
recorded_value = 0

[[record]]
compound = "CNC[C@H](O)c1ccc(O)c(O)c1 [EPINEPHRINE]"
endpoint_name = "HepSE_cholecystitis"
recorded_value = 0

[[record]]
compound = "CN1CC[C@]23c4c5ccc(O)c4O[C@H]2[C@@H](O)C=C[C@H]3[C@H]1C5 [MORPHINE]"
endpoint_name = "HepSE_cholecystitis"
recorded_value = 0

[[record]]
compound = "O=C1CN(/N=C/c2ccc([N+](=O)[O-])o2)C(=O)N1 [NITROFURANTOIN]"
endpoint_name = "HepSE_cholecystitis"
recorded_value = 0

[[record]]
compound = "NNc1nncc2ccccc12 [HYDRALAZINE]"
endpoint_name = "HepSE_cholecystitis"
recorded_value = 0

[[record]]
compound = "CO[C@H]1/C=C/O[C@@]2(C)Oc3c(C)c(O)c4c(c3C2=O)C2=NC3(CCN(CC(C)C)CC3)NC2=C(NC(=O)/C(C)=C\\C=C\\[C@H](C)[C@H](O)[C@@H](C)[C@@H](O)[C@@H](C)[C@H](OC(C)=O)[C@@H]1C)C4=O [RIFABUTIN]"
endpoint_name = "HepSE_cholecystitis"
recorded_value = 0

[[record]]
compound = "Cc1cccc([C@H](C)c2cnc[nH]2)c1C [DEXMEDETOMIDINE]"
endpoint_name = "HepSE_cholecystitis"
recorded_value = 0

[[record]]
compound = "O=C(O)O [BICARBONATE]"
endpoint_name = "HepSE_cholecystitis"
recorded_value = 0

[[record]]
compound = "CN1CCC[C@H]1c1cccnc1 [NICOTINE]"
endpoint_name = "HepSE_cholecystitis"
recorded_value = 0

[[record]]
compound = "Nc1ccc(S(=O)(=O)c2ccc(N)cc2)cc1 [DAPSONE]"
endpoint_name = "HepSE_cholecystitis"
recorded_value = 0

[[record]]
compound = "CC(C)n1c(/C=C/C(O)CC(O)CC(=O)O)c(-c2ccc(F)cc2)c2ccccc21 (stereo unspecified) [FLUVASTATIN]"
endpoint_name = "HepSE_cholecystitis"
recorded_value = 0

[[record]]
compound = "COc1cc(Cc2cnc(N)nc2N)cc(OC)c1OC [TRIMETHOPRIM]"
endpoint_name = "HepSE_cholecystitis"
recorded_value = 0

[[record]]
compound = "CN1C(=O)CN=C(c2ccccc2)c2cc(Cl)ccc21 [DIAZEPAM]"
endpoint_name = "HepSE_cholecystitis"
recorded_value = 0


----------
Hepatotoxicity data, read-out HepSE_jaundice
ENDPOINT_NAME: HepSE_jaundice

[[record]]
compound = "COc1cc(C(=O)NS(=O)(=O)c2ccccc2C)ccc1Cc1cn(C)c2ccc(NC(=O)OC3CCCC3)cc12"
endpoint_name = "HepSE_jaundice"
recorded_value = 0

[[record]]
compound = "CCC(=O)O[C@](Cc1ccccc1)(c1ccccc1)[C@H](C)CN(C)C"
endpoint_name = "HepSE_jaundice"
recorded_value = 1

[[record]]
compound = "CC(C)[C@H]1CC[C@H](C(=O)N[C@H](Cc2ccccc2)C(=O)O)CC1 [NATEGLINIDE]"
endpoint_name = "HepSE_jaundice"
recorded_value = 1

[[record]]
compound = "Cc1ccnc2c1NC(=O)c1cccnc1N2C1CC1"
endpoint_name = "HepSE_jaundice"
recorded_value = 1

[[record]]
compound = "C[C@]12CC[C@H]3[C@@H](CCC4=CC(=O)CC[C@@H]43)[C@@H]1CC[C@@H]2O"
endpoint_name = "HepSE_jaundice"
recorded_value = 0

[[record]]
compound = "Cc1noc(NS(=O)(=O)c2ccc(N)cc2)c1C"
endpoint_name = "HepSE_jaundice"
recorded_value = 1

[[record]]
compound = "CO/N=C(\\C(=O)N[C@@H]1C(=O)N2C(C(=O)O)=C(CSc3nc(=O)c(=O)[nH]n3C)CS[C@H]12)c1csc(N)n1"
endpoint_name = "HepSE_jaundice"
recorded_value = 0


----------
- Tested on: Hepatotoxicity
- RUN_PARAMETERS: Liver
ENDPOINT_NAME: HepSE_hepatic failure

[[record]]
compound = "COc1cc([C@@H]2c3cc4c(cc3[C@@H](O[C@@H]3O[C@@H]5CO[C@@H](C)O[C@H]5[C@H](O)[C@H]3O)[C@H]3COC(=O)[C@H]23)OCO4)cc(OC)c1O [ETOPOSIDE]"
measured_target = "Hepatotoxicity"
recorded_value = 0

[[record]]
compound = "O=C(O)O [BICARBONATE]"
measured_target = "Hepatotoxicity"
recorded_value = 0

[[record]]
compound = "CC(C)C[C@H](NC(=O)[C@H](Cc1ccccc1)NC(=O)c1cnccn1)B(O)O"
measured_target = "Hepatotoxicity"
recorded_value = 1

[[record]]
compound = "CNCCC=C1c2ccccc2CCc2ccccc21"
measured_target = "Hepatotoxicity"
recorded_value = 0

[[record]]
compound = "CC[C@H]1OC(=O)[C@H](C)C(=O)[C@H](C)[C@@H](O[C@@H]2O[C@H](C)C[C@H](N(C)C)[C@H]2O)[C@](C)(OC)C[C@@H](C)C(=O)[C@H](C)[C@H]2N(CCCCn3cnc(-c4cccnc4)c3)C(=O)O[C@]12C"
measured_target = "Hepatotoxicity"
recorded_value = 1

[[record]]
compound = "CC1=C(/C=C/C(C)=C/C=C/C(C)=C/CO)C(C)(C)CCC1"
measured_target = "Hepatotoxicity"
recorded_value = 0


----------
Hepatotoxicity data, read-out HepSE_liver function tests abnormal
*1 amine or outer side, *2 acyl side, *3 side chain or, on linkers, in order; H or OH if unused. Where a SMILES comes first, the peptide text is derived from it. Bridges are numbered along the chain shown (N, C = ends). [ ]: non-standard residue; d: D form. The star is where a group is joined. hTyr(3S-OH,4S-OH,3'-OSO3H) = N[C@H](C(=O)O)[C@H](O)[C@@H](O)c1ccc(O)c(OS(=O)(=O)O)c1; Orn(4R-OH,5R-OH) = O=C([C@H](C[C@@H](O)[C@@H](O)N[*:3])N[*:1])[*:2]; Pro(3S-OH,4S-Me) = C[C@H]1CN[C@H](C(=O)O)[C@H]1O; X1 = CCCCCOc1ccc(-c2cc(-c3ccc(C(=O)*)cc3)no2)cc1; Gln(3R-OH) = NC(=O)C[C@@H](O)[C@H](N)C(=O)O; Hyp = O=C(O)[C@@H]1C[C@@H](O)CN1; hArg = N=C(N)NCCCC[C@H](N)C(=O)O; Mpa = O=C(O)CCS
ENDPOINT_NAME: HepSE_liver function tests abnormal

[[record]]
molecule = "C[N+](C)(C)CCOC(=O)CCC(=O)OCC[N+](C)(C)C [SUXAMETHONIUM]"
endpoint_name = "HepSE_liver function tests abnormal"
recorded_value = 0

[[record]]
molecule = "Cc1ncc([N+](=O)[O-])n1CCO [METRONIDAZOLE]"
endpoint_name = "HepSE_liver function tests abnormal"
recorded_value = 0

[[record]]
molecule = "CC1=C(CC(=O)O)c2cc(F)ccc2/C1=C\\c1ccc([S+](C)[O-])cc1 (centres undefined)"
endpoint_name = "HepSE_liver function tests abnormal"
recorded_value = 0

[[record]]
molecule = "CCCCCOc1ccc(-c2cc(-c3ccc(C(=O)N[C@H]4C[C@@H](O)[C@@H](O)NC(=O)[C@@H]5[C@@H](O)[C@@H](C)CN5C(=O)[C@H]([C@H](O)CC(N)=O)NC(=O)[C@H]([C@H](O)[C@@H](O)c5ccc(O)c(OS(=O)(=O)O)c5)NC(=O)[C@@H]5C[C@@H](O)CN5C(=O)[C@H]([C@@H](C)O)NC4=O)cc3)no2)cc1 [MICAFUNGIN] (X1-[Orn(4R-OH,5R-OH)]T[Hyp][hTyr(3S-OH,4S-OH,3'-OSO3H)][Gln(3R-OH)][Pro(3S-OH,4S-Me)]; lactam 1-C)"
endpoint_name = "HepSE_liver function tests abnormal"
recorded_value = 1

[[record]]
molecule = "N=C(N)NCCCC[C@@H]1NC(=O)CCSSC[C@@H](C(N)=O)NC(=O)[C@@H]2CCCN2C(=O)[C@H](Cc2c[nH]c3ccccc23)NC(=O)[C@H](CC(=O)O)NC(=O)CNC1=O [EPTIFIBATIDE] ([Mpa][hArg]GDWPC-NH2; disulfide 1-7)"
endpoint_name = "HepSE_liver function tests abnormal"
recorded_value = 0

[[record]]
molecule = "C=CC(N)CCC(=O)O (centres undefined) [VIGABATRIN]"
endpoint_name = "HepSE_liver function tests abnormal"
recorded_value = 0

[[record]]
molecule = "c1ccc2[nH]c(-c3cscn3)nc2c1 [THIABENDAZOLE]"
endpoint_name = "HepSE_liver function tests abnormal"
recorded_value = 0

[[record]]
molecule = "CN1C2CCCC1CC(NC(=O)c1nn(C)c3ccccc13)C2 (centres undefined) [GRANISETRON]"
endpoint_name = "HepSE_liver function tests abnormal"
recorded_value = 1

[[record]]
molecule = "COc1cc(C)c(/C=C/C(C)=C/C=C/C(C)=C/C(=O)O)c(C)c1C [ACITRETIN]"
endpoint_name = "HepSE_liver function tests abnormal"
recorded_value = 0

[[record]]
molecule = "[Cl-].[Na+] [SODIUM CHLORIDE]"
endpoint_name = "HepSE_liver function tests abnormal"
recorded_value = 0

[[record]]
molecule = "CO[C@H]1C[C@@H]2CC[C@@H](C)[C@@](O)(O2)C(=O)C(=O)N2CCCC[C@H]2C(=O)O[C@H]([C@H](C)C[C@@H]2CC[C@@H](O)[C@H](OC)C2)CC(=O)[C@H](C)/C=C(\\C)[C@@H](O)[C@@H](OC)C(=O)[C@H](C)C[C@H](C)/C=C/C=C/C=C/1C [SIROLIMUS]"
endpoint_name = "HepSE_liver function tests abnormal"
recorded_value = 1

[[record]]
molecule = "C/C(=C\\C(=O)OCCCCCCCCC(=O)O)C[C@@H]1OC[C@H](C[C@@H]2O[C@H]2[C@@H](C)[C@H](C)O)[C@@H](O)[C@H]1O [MUPIROCIN]"
endpoint_name = "HepSE_liver function tests abnormal"
recorded_value = 0

[[record]]
molecule = "C=CCC1(C(C)C#CCC)C(=O)N=C(O)N(C)C1=O (centres undefined) [METHOHEXITAL]"
endpoint_name = "HepSE_liver function tests abnormal"
recorded_value = 1

[[record]]
molecule = "COc1cc([C@@H]2c3cc4c(cc3[C@@H](O[C@@H]3O[C@@H]5CO[C@@H](c6cccs6)O[C@H]5[C@H](O)[C@H]3O)[C@H]3COC(=O)[C@H]23)OCO4)cc(OC)c1O [TENIPOSIDE]"
endpoint_name = "HepSE_liver function tests abnormal"
recorded_value = 0

